assay: in vivo; settings: SD, rat, po, 5 mg/kg
// condition not met strictly below 10000 ng·h/mL in AUC(0-t); condition met otherwise

Look over these answered cases.
Compound	Category
O=C(O)[C@H]1C2CCC(CC2)[C@@H]1Nc1nc(-c2c[nH]c3nc(Cl)cnc23)nc(-c2cccs2)c1F [Example 53]	condition met
O=C(O)[C@H]1C2CCC(CC2)[C@@H]1Nc1nc(-c2c[nH]c3ncc(Cl)nc23)nc(-c2cccs2)c1F [Example 13]	condition met
O=C(O)[C@H]1C2CCC(CC2)[C@@H]1Nc1nc(-c2c[nH]c3ncc(Cl)nc23)nc(-c2ccc(F)s2)c1F [Example 62]	condition met
O=C(O)[C@H]1C2CCC(CC2)[C@@H]1Nc1nc(-c2c[nH]c3ncc(Cl)nc23)nc2c1ccn2C(CF)CF [Example 65]	condition not met
CC(C)Cn1ccc2c(N[C@H]3C4CCC(CC4)[C@@H]3C(=O)O)nc(-c3c[nH]c4ncc(Cl)nc34)nc21 [Example 66]	condition met
CC(C)(C)[C@@H](CC(=O)O)Nc1nc(-c2c[nH]c3ncc(Cl)nc23)nc(-c2ccco2)c1F [Example 8]	condition not met

Now look at this entry.
Can O=C(O)[C@H]1C2CCC(CC2)[C@@H]1Nc1nc(-c2c[nH]c3ncc(Cl)nc23)nc(-c2nccs2)c1F [Example 49] be said to have AUC(0-t) at or above 10000 ng·h/mL?
condition not met

Values from patent US10987354B2
